Hello, the source for this data is patent US20250018014A1, in case you need it.

# measured_on: Reg1_301-599 (amino acids 301-599 of human Regnase-1) phosphorylation by IKKβ (Homo sapiens, UniProt Q5D1E8)
# Sequence (Q5D1E8 301-599): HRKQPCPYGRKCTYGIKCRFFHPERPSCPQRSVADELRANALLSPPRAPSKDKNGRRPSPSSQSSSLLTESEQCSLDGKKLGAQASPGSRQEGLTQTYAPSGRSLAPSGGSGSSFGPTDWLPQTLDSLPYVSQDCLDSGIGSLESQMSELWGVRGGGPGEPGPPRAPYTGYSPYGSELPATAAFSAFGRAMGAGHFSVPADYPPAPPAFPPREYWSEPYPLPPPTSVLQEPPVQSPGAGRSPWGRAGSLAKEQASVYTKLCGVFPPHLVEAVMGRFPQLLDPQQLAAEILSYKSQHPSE
Residues, ends and D or L forms follow the SMILES beside them.
quantity_measured: IC50

Challenge: Give the measured IC50 of CC(C)[C@@H]1NC(=O)[C@H](CCCCN)NC(=O)[C@H](Cc2ccc(O)cc2)NC(=O)[C@H](Cc2c[nH]c3ccccc23)NC(=O)[C@H](CO)NC(=O)[C@H]([C@@H](C)O)NC(=O)[C@H](C)N(C)C(=O)C[C@@H](C(=O)N2CCCC2)NC(=O)[C@H](CCC(N)=O)NC(=O)CNC(=O)[C@H](Cc2c[nH]c3ccccc23)NC(=O)[C@H](CC(N)=O)NC1=O [PP1] (HELM PEPTIDE1{[meA].T.S.W.Y.K.V.N.W.G.Q.D.[C1CCN([*:1])C1]}$PEPTIDE1,PEPTIDE1,1:R1-12:R3$$$V2.0) .
Response given: > 62.1 µM
